- Measured Target: recombinant full-length PfCSP (Plasmodium falciparum circumsporozoite protein, strain NF54) (Plasmodium falciparum NF54, UniProt P19597)
- Sequence (P19597 20-375): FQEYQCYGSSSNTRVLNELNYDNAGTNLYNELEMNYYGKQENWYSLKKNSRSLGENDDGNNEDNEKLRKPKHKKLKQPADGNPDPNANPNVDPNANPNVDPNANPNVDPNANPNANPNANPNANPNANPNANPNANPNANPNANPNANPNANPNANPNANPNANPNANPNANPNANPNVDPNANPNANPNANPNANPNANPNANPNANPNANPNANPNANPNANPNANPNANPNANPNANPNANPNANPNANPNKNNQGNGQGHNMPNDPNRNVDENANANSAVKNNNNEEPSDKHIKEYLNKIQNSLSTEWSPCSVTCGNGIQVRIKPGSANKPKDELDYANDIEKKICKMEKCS
Measured Property: binding result

CL-514174 (antibody, V domains shown) VH: QVQLVESGGGVVQPGRSLRLSCVASGFTFSGSGMHWVRQSPGKGLEWVAIIWYDGSNKFYADSVQGRFTISRDNSKNTLYLQMNSLRVEDTGVYYCARAYLSGNYGDKYGMDVWGQGTTVTVSS VL: DIQMTQSPSTLSASVGDRVTITCRASQSISSWLAWFQQKPGKAPKLLIYKASSLESGVPSRFSGSGSGTEFTLTINSLQPDDFATYFCQQYNYYWTFGQGTKVEIK
binds
CL-437492 (antibody, V domains shown) VH: QEQLVESGGGVVQPGNSLRLSCVASGFTFSNHGMHWVRQAPGKGLEWVAIIWYDGSQKFYSDSVKGRFTISRDNSKNTLYLQMNSLRAEDTAIYYCARVDWSGNDWGWFDPWGQGTLVTVSS VL: EIVLTQSPDTLSLSPGERATLSCRASQTLSSRHLAWYQQKPGQAPRLLIYGASSRATGIPDRFSGSGSGTDFTLTINRLEPEDFAVFYCQQYGRLWTFGQGTKVEIK
binds
CL-512374 (antibody, V domains shown) VH: QVQLVESGGGVVQPGRSLRLSCAASGFTFSSYGMHWVRQAPGKGLEWVAVIWYDGSNKYYADSVKGRFTISRDNSKNTLYLQMNSLRAEDTAVYYCARDGGGTTRSFDLWGRGTLVTVSS VL: QSVLTQPPSVSGAPGQRVTISCTGSSSNIGAGYDVHWYQQLPGTAPKLLIYGNSNRPSGVPDRFSGSKSGTSASLAITGLQAEDEADYYCQSYDSSLSGSMFGGGTKLTVL
binds
